Values from patent US20190224291A1

- system under test: T1, HLA-A0201 on T2 cells (human)
- T1 construct: MHC class I on TAP-deficient T2 cells; also called HLA-A2; HLA-A0201 molecule
- procedure text: T2 cell peptide binding assay, flow cytometry with FITC anti-HLA-A0201, peptide 100 uM
measured attribute: Average fluorescence intensity
No unit in the answer, only the number.

Worked cases, Average fluorescence intensity given:
{"columns": ["binder", "measured attribute", "measurement"],
 "data": [
  ["FMVDGFWSV (Synthetic peptide) [variant peptide FMVDGFWSV]", "Average fluorescence intensity", 721],
  ["FMVDGFWSL (Synthetic peptide) [variant peptide FMVDGFWSL]", "Average fluorescence intensity", 748],
  ["FLVDGFWSV (Synthetic peptide) [variant peptide FLVDGFWSV]", "Average fluorescence intensity", 642],
  ["FMVDGSWSI (Synthetic peptide, purity >90%) [wild-type peptide FMVDGSWSI]", "Average fluorescence intensity", 772],
  ["FLVDGFWSL (Synthetic peptide) [variant peptide FLVDGFWSL]", "Average fluorescence intensity", 664]
]}

Next, consider the following binder.
In: What does the data say about its Average fluorescence intensity? Entry: FLVDGFWSI (Synthetic peptide) [variant peptide FLVDGFWSI]
Out: 701
